Reference for the values: patent US20030068675

TESTED ON: ZFP SBS#396 (synthetic)
Sequence (chain, as listed by the source): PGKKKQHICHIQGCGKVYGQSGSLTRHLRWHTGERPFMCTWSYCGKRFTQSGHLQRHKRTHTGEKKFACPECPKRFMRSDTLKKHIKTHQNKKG
PROCEDURE DETAILS: EMSA
STUDY CONDITIONS: tags: MBP fusion
pKd: −log10 of the molar value.

BINDER: GCGGGAGCAG (dsDNA) DNA 1: GCGGGAGCAG DNA 2: CTGCTCCCGC
pKd: 7.73
